- Assay system: EPHB2 (UniProt P29323)
- Sequence (P29323 whole entry, looked up): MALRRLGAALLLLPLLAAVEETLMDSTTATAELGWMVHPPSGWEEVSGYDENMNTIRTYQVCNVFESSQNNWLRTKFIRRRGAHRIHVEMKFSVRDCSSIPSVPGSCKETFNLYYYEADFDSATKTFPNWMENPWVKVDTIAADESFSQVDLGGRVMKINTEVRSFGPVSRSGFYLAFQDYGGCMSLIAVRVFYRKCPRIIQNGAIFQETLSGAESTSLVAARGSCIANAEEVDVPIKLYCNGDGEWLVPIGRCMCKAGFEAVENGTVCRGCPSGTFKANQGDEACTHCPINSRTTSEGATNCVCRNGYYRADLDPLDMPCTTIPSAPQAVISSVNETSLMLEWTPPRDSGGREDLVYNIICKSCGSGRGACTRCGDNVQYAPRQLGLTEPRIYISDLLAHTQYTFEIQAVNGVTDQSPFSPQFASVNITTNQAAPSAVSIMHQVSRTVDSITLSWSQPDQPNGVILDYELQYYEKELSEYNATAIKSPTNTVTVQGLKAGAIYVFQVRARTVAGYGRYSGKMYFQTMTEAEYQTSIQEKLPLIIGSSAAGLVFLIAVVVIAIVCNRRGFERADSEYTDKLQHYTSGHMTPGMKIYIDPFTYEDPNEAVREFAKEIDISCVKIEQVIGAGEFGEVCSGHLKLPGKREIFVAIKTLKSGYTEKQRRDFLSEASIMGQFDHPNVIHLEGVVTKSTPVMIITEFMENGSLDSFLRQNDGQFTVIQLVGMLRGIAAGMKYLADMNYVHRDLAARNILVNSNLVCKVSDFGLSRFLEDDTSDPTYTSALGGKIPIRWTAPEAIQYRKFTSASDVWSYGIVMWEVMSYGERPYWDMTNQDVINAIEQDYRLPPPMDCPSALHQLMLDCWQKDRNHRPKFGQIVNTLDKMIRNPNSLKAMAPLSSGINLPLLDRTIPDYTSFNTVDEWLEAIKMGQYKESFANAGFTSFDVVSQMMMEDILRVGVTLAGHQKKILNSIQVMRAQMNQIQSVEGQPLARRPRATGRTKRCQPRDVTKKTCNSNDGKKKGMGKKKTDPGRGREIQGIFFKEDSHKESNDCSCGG
- Procedure details: phosphorylation enrichment, bacterial display (enrichment ratio); higher = better substrate or ligand; peptides without Tyr show the background;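 also: 11-residue human phosphosite peptides and single-mutation variants displayed on the E. coli surface, counted by deep sequencing, each peptide's frequency after selection divided by its frequency in the unselected input library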;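 also: frequency after pTyr selection over input frequency; kinase dosed for 20-30% of maximal phosphorylation in three min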
Decision: phosphorylation enrichment >= 0.5 yields yes (1), all other cases yield no (0).

[Q] For this sequence, is measured phosphorylation enrichment 0.5 or higher? EKAEVYRSENE [RIOK2_Y348_G349R]
[A] yes (1)

[Q] Is it the case that FVHDNYVIQRT [CPS1_Y1450_R1453Q] has phosphorylation enrichment reaching or exceeding 0.5?
[A] yes (1)

[Q] Quick check: does FKDVTYLKEEK [UBE3A_Y127_T129K] have phosphorylation enrichment greater than or equal to 0.5?
[A] no (0)

[Q] API: above_or_equal(metric=phosphorylation enrichment, cutoff=0.5) for item NDQANYSLNTD [ADA_Y290]
[A] yes (1)

[Q] Is phosphorylation enrichment at least 0.5? Consider GHRPVYSEDEQ [CHST6_Y362_Y358H]
[A] yes (1)

***
[Q] Could you please find out whether KLQKYYRKNPD [EHHADH_Y683_Q685K] has phosphorylation enrichment that meets 0.5 or exceeds it?
[A] no (0)

###

- Assay system: EPHB1 (UniProt P54762)
- Sequence (P54762 whole entry, looked up): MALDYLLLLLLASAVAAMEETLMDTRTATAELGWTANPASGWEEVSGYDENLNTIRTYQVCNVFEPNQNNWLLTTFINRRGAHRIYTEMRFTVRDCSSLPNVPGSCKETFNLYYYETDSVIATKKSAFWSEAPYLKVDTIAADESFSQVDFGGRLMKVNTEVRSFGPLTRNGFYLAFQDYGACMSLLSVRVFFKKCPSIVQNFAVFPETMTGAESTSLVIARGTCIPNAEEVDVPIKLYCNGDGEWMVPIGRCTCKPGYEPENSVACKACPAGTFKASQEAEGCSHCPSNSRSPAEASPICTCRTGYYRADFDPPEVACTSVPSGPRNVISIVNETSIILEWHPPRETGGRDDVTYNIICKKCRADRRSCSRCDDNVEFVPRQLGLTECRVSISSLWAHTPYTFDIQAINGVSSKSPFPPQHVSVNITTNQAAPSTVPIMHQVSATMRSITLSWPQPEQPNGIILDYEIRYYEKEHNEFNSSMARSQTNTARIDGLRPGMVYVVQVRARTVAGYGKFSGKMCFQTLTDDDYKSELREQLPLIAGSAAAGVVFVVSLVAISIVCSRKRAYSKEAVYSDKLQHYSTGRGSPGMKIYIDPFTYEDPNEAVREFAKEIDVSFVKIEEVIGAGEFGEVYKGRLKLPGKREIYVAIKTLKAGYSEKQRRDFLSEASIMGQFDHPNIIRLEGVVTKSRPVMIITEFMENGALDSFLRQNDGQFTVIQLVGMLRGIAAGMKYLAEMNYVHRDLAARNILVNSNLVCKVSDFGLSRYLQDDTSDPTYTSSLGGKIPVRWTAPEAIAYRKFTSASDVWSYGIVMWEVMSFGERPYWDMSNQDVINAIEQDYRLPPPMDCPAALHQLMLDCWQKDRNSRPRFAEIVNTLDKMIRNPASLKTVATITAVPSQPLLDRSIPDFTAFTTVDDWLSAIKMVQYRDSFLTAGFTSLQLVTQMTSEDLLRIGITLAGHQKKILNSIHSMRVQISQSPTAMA
- Procedure details: phosphorylation enrichment, bacterial display (enrichment ratio); higher = better substrate or ligand; peptides without Tyr show the background
Label 1 when phosphorylation enrichment >= 0.8; otherwise 0.

Worked examples, 5 sequences total:
[Q] Has SRIWVYNHFRW [BRCA2_Y2621_YF] a recorded phosphorylation enrichment greater than or equal to 0.8?
[A] 0

[Q] Quick check: does EACPSYSHVVL [CHST6_Y168_R166P] have phosphorylation enrichment greater than or equal to 0.8?
[A] 0

[Q] Test whether the sequence KDHLDYKFQPR [SOX9_Y172_P170L_YF] records phosphorylation enrichment of 0.8 or higher.
[A] 0

[Q] Determine whether this sequence has phosphorylation enrichment no lower than 0.8: ETGEPCRLSPE [EIF4G1_Y311_Y311C]
[A] 0

[Q] Decide: is the reported value of phosphorylation enrichment for LIFTNYEVGKD [GSTP1_Y112_A114V_YF] equal to or greater than 0.8?
[A] 1

New cases:
[Q] Assess whether reported phosphorylation enrichment for ERKQTYGSCRK [LACTB_Y473] sits at 0.8 or higher.
[A] 0

[Q] Hi team, for FEGAIYRKDIG [GART_Y417_V421I] , is the recorded phosphorylation enrichment at or above 0.8?
[A] 0

###

- Assay system: Hck (UniProt P08631)
- Sequence (P08631 whole entry, looked up): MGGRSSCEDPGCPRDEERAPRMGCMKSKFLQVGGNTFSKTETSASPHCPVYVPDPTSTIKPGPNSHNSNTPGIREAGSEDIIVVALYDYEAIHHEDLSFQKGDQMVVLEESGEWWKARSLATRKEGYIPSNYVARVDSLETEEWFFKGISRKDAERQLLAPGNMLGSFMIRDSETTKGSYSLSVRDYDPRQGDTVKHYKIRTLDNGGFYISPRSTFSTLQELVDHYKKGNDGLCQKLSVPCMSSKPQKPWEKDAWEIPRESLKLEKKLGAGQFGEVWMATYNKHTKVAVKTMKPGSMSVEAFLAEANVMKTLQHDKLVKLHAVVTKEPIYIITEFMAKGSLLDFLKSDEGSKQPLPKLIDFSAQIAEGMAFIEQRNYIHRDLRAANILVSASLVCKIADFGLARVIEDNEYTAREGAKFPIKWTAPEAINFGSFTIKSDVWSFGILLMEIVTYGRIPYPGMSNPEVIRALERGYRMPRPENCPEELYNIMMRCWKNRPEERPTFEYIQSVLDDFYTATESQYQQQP
- Procedure details: phosphorylation enrichment, bacterial display (enrichment ratio); higher = better substrate or ligand; peptides without Tyr show the background
What phosphorylation enrichment was measured for each of the following?
Answers are plain numbers.

Examples from the recorded data:
[Q] Supply reported phosphorylation enrichment belonging to this sequence: CTTIHYNFMCI [TP53_Y234_N239I_YF]
[A] 0.529

[Q] Using the record for GINDDYGQLKN [NBN_Y679] , state its measured phosphorylation enrichment.
[A] 0.874

[Q] Report measured phosphorylation enrichment; entry is KKCTTYIDCDL [ASPA_Y64_R63T]
[A] 0.491

[Q] Assign phosphorylation enrichment to the following record: SPDMLYQYLKQ [RPAP3_Y567]
[A] 8.16

[Q] Answer with reported phosphorylation enrichment of ALVDTYCRHNF [HLA-DRB1_Y107_A103L_YF]
[A] 0.577

// each listed sequence needs a value for phosphorylation enrichment
1. LHRAHYDLRHT [AHSG_Y314]
2. SGDITYGQFAQ [PLCG1_Y210]
3. PIYEGYALPHA [ACTA1_Y171]

[A]
[0.876, 4.63, 17.3]

###

Kindly supply the reported phosphorylation enrichment values for the records listed here.
- Test system: c-Src
- Procedure details: phosphorylation enrichment, bacterial display (enrichment ratio); higher = better substrate or ligand; peptides without Tyr show the background

[Q] Provide one value: measured phosphorylation enrichment of QFLMMYVWSAS [ABCD1_Y337_K336M]
[A] 0.779

[Q] Give phosphorylation enrichment for the following sequence: MDDPRYGMCPL [ZNF100_Y6]
[A] 0.685

[Q] Look up phosphorylation enrichment of EVTLTYATGTK [NFKB1_Y485] and report it.
[A] 0.409

[Q] Give recorded phosphorylation enrichment. GVYSRYFTTYD [CLCA1_Y661]
[A] 4.77

Give one value of phosphorylation enrichment per listed sequence.
1. FLAVGYHKPHI [IDS_Y225]
2. IRDLKYTIENP [SND1_Y178]
3. EDKSIYRRGAR [PRKCI_Y125]
4. SRDDDYETIAM [NPY1R_Y347]
5. PDDPNYSLVDD [PSTPIP2_Y323]
6. PSSNLYFRCLT [CNGA3_Y168_W171C_YF]

[A]
1. 0.448
2. 0.47
3. 0.593
4. 0.562
5. 0.603
6. 0.48

Go through the items and report each one's phosphorylation enrichment.
1. ADAHHYLCKEV [JAK2_Y382]
2. KMLEKYKERLN [TLK2_Y259]
3. SDVDLYQVRIA [PSMD9_Y70_T74I]
4. FKDVTYLKEEK [UBE3A_Y127_T129K]

[A]
[0.543, 0.463, 2.13, 0.523]

###

- System: c-Abl (mouse)
- Procedure details: phosphorylation enrichment, bacterial display (enrichment ratio); higher = better substrate or ligand; peptides without Tyr show the background
Tag: 1.0 if measured phosphorylation enrichment is not below 0.7, 0.0 if it is.

[Q] Reported phosphorylation enrichment reaches at least 0.7 for RGFRQYAFDGK [HLA-A_Y140_D140Y_YF] ?
[A] 0.0

[Q] In plain terms: is recorded phosphorylation enrichment at least 0.7 for NHYKICNLCAE [PTEN_Y68_Y68C] ?
[A] 0.0

[Q] API: above_or_equal(metric=phosphorylation enrichment, cutoff=0.7) for item YYLGKYLQEVL [KLB_Y910]
[A] 1.0

[Q] Would you say RKQQLYTAMEE [CCDC39_Y593] shows phosphorylation enrichment at minimum 0.7?
[A] 0.0

[Q] Could you tell me if the measured phosphorylation enrichment of KMGNIYRTEYG [MRPL3_Y265] reaches 0.7 or more?
[A] 0.0

[Q] Could you verify whether the entry LTEEKYELKEG [TREM1_Y29] shows phosphorylation enrichment of no less than 0.7?
[A] 1.0

[Q] For this sequence, is measured phosphorylation enrichment 0.7 or higher? GESKDYALHVG [SVIL_Y185]
[A] 0.0

[Q] Is phosphorylation enrichment at least 0.7? Consider TMETKYDNISR [SETDB2_Y477_V473M]
[A] 0.0

[Q] Given the entry MFNPYYGLFEY [NEDD4L_Y680] , answer whether its phosphorylation enrichment meets or surpasses 0.7.
[A] 1.0

[Q] // inclusive: phosphorylation enrichment at least 0.7? input: HEKKAYSFCGT [RPS6KA3_Y226]
[A] 1.0

Further cases:
[Q] Could you verify whether the entry TEFSQYMRRKN [MAX_Y73_I71S_YF] shows phosphorylation enrichment of no less than 0.7?
[A] 1.0

[Q] Please tell me: is the sequence EHTILYSNNST [KANSL1_Y223_T221I] at or over 0.7 in terms of phosphorylation enrichment?
[A] 0.0

###

Field: phosphorylation enrichment. Provide a value for each of the sequences that follow.
- Assay system: FGFR1 (UniProt P11362)
- Sequence (P11362 whole entry, looked up): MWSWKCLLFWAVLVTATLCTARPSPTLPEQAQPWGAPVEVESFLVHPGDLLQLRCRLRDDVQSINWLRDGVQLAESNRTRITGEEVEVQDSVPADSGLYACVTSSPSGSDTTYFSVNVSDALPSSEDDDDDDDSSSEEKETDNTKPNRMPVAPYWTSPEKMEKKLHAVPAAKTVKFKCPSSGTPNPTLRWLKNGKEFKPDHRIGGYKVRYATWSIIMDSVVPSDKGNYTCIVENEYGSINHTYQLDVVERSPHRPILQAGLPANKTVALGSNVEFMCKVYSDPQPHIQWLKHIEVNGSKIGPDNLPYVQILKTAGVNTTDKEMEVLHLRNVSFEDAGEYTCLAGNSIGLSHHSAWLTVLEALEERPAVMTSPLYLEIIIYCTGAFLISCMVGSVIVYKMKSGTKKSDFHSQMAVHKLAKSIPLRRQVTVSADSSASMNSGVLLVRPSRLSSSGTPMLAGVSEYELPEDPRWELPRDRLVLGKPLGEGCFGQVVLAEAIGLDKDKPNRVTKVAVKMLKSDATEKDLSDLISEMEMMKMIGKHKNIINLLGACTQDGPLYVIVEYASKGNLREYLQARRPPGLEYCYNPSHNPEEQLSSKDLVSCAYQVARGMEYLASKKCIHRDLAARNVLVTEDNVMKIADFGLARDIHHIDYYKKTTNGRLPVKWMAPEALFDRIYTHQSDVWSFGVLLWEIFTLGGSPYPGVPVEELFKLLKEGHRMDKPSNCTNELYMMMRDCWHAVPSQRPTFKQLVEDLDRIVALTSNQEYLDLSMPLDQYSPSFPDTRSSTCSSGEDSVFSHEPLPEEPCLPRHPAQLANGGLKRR
- Procedure details: phosphorylation enrichment, bacterial display (enrichment ratio); higher = better substrate or ligand; peptides without Tyr show the background
Answers are plain numbers.

[Q] State its phosphorylation enrichment: DVFVSYDFGKS [SORL1_Y139_YF]
[A] 0.416

[Q] Given the sequence IAINKYEVSLI [MYO7A_Y2136_G2137E] , write its reported phosphorylation enrichment.
[A] 0.445

[Q] Report measured phosphorylation enrichment; entry is VFDHIYTTQSD [RET_Y928_L923V]
[A] 0.55

[Q] Identify phosphorylation enrichment associated with the sequence EQLQSYQVEII [KRT33A_Y268_A270V]
[A] 0.531

[Q] Read the entry IVRSLYEDQED [VHL_Y185_L188Q] and write its reported phosphorylation enrichment.
[A] 0.67

# ---- query sequence ----
[Q] Determine its reported phosphorylation enrichment: VPTSKYRGGGG [HBA1_Y141_L137P]
[A] 0.392

###

- Assay system: FGFR3 (UniProt P22607)
- Sequence (P22607 whole entry, looked up): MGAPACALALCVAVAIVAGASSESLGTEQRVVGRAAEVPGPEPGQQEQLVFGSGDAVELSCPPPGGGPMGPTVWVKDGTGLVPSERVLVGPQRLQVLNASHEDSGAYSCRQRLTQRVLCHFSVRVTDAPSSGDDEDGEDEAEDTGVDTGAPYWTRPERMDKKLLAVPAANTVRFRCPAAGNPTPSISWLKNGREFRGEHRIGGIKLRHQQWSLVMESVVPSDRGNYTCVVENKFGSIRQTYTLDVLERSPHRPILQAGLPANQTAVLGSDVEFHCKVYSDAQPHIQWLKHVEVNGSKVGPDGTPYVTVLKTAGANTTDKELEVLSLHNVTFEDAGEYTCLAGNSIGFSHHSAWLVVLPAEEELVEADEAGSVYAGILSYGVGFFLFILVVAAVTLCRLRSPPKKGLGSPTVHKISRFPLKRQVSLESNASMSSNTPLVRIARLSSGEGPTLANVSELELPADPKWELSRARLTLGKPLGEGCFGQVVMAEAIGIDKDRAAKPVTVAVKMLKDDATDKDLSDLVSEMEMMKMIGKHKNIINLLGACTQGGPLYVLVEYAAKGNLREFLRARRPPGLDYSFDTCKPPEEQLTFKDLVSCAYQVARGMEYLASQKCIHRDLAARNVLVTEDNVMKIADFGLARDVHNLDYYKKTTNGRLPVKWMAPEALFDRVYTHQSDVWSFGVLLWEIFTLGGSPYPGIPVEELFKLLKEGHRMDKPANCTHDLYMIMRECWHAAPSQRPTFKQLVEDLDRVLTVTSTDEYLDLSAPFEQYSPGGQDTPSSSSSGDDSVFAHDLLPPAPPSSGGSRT
- Procedure details: phosphorylation enrichment, bacterial display (enrichment ratio); higher = better substrate or ligand; peptides without Tyr show the background
Result type: phosphorylation enrichment
Numbers only.

Example cases with answers are listed next.
[Q] Quickly give me recorded phosphorylation enrichment for AVSEGYKDFRA [CDA_Y79]
[A] 0.542

[Q] Indicate the recorded phosphorylation enrichment value for this sequence: DPTNTYARPAE [SGMS2_Y24]
[A] 0.481

[Q] Let me know recorded phosphorylation enrichment for CHSDDYVHISL [TSC1_Y406] , thanks.
[A] 1.07

[Q] Please report the measured phosphorylation enrichment for PRQRRYVFFFS [PTEN_Y174_S170R_YF]
[A] 0.715

[Q] Entry CVAARYMDVKG [WFIKKN2_Y93] needs its phosphorylation enrichment filled in; supply it.
[A] 0.549

[Q] Entry TYGVVYKARNK [CDK2_Y19] needs its phosphorylation enrichment filled in; supply it.
[A] 0.515

[Q] Kindly indicate its recorded phosphorylation enrichment. Item: KKFPDYIQSAM [SGMS2_Y59_I62S_YF]
[A] 0.471

[Q] Dear colleague, please send me the reported phosphorylation enrichment for RRYLYYYSYLL [PTEN_Y177_V175L] when you can.
[A] 1.93

[Q] Note phosphorylation enrichment for the sequence shown: REDVFYTSKLW [AKR1C2_Y81_I79V]
[A] 1.05

[Q] Note down phosphorylation enrichment recorded for LHSEAYLKFNE [PBRM1_Y1610_I1614N_YF]
[A] 0.945

Please give phosphorylation enrichment for each item listed below.
1. SDGHEYIFVDP [PDGFRB_Y579_YF]
2. LLASRYDSPIN [ABLIM1_Y638]
3. PEVCDYGLGGG [GSTO1_Y239_A236V]
4. GGKFSYLKVGH [GRM3_Y480_YF]

[A]
1: 1.37; 2: 0.636; 3: 0.803; 4: 0.519
